experiment: chemical genetic growth profiling, strain panel (AID 1159580);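 further: tested at 20 µM; growth read once vehicle control cultures reached saturation at 30 °C; 1 = growth at the plate median or of vehicle wells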; conditions: S. cerevisiae deletion strains, growth OD, locus YLR330W, strain CHS5
In all, about 5,500 compounds went through this assay and about 2,000 (36%) were called active. About 18% were inconclusive and are not listed. No stated cut-off is given here; in the data, active means normalized growth mostly below about 0.91 (no sharp cut-off); inconclusive means no clear call, values can overlap the other calls; inactive means mostly above about 0.92. This is one part of the list.
Classes used: active, inactive

{"Compound": "C[C@@H]1CC(Cl)CC[C@H]1C(=O)OC(C)(C)C (some centres not stated)", "Cat": "inactive"}
{"Compound": "CN1C2CCC1CC(OC(c1ccccc1)c1ccccc1N)C2 (configuration not stated)", "Cat": "inactive"}
{"Compound": "c1ccc2c(c1)sc1ccccc12", "Cat": "inactive"}
{"Compound": "O=S(=O)(O)CCS", "Cat": "inactive"}
{"Compound": "C[C@@H]1O[C@@H](O[C@H]2[C@H](Oc3cc(O)c4c(=O)cc(-c5ccc(O)cc5)oc4c3)O[C@H](CO)[C@@H](O)[C@@H]2O)[C@H](O)[C@H](O)[C@H]1O", "Cat": "inactive"}
{"Compound": "O=C(O[C@@H]1Cc2c(O)cc(O)cc2O[C@@H]1c1cc(O)c(O)c(O)c1)c1cc(O)c(O)c(O)c1", "Cat": "active"}
{"Compound": "CC(=O)Oc1cc(OC(C)=O)c2c(c1)O[C@H](c1ccc(OC(C)=O)c(OC(C)=O)c1)[C@@H](OC(C)=O)C2", "Cat": "inactive"}

----------
test: chemical genetic growth profiling, strain panel (AID 1159580);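 further: tested at 20 µM; growth read once vehicle control cultures reached saturation at 30 °C; 1 = growth at the plate median or of vehicle wells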; settings: S. cerevisiae deletion strains, growth OD, locus YDL005C, strain med2, stronger effect = lower value
Screen size: about 5,500 compounds; about 2,000 (36%) were called active. About 18% were inconclusive and are not listed. The list shows a part of the results.

{"Molecule": "COc1ccc(-c2coc3cc(O)ccc3c2=O)c(O)c1O", "normalized growth": 0.979}
{"Molecule": "N=c1ccn2c(n1)OC1C(O)C(CO)OC12 (stereo unspecified)", "normalized growth": 0.986}
{"Molecule": "O=C(O)/C=C/c1ccc(O)c(O)c1", "normalized growth": 1}
{"Molecule": "O=c1c(-c2ccc(O)cc2)coc2cc(O)ccc12", "normalized growth": 0.976}
{"Molecule": "CN1C2CCC1CC(OC(c1ccccc1)c1ccccc1N)C2 (stereo unspecified)", "normalized growth": 0.99}
{"Molecule": "COc1ccc(-c2coc3cc(O)ccc3c2=O)c(OC)c1O", "normalized growth": 0.977}
{"Molecule": "NS(=O)(=O)c1cc2c(cc1Cl)NC=NS2(=O)=O", "normalized growth": 0.997}
{"Molecule": "CCCCNC(=O)NS(=O)(=O)c1ccc(C)cc1", "normalized growth": 1.01}
{"Molecule": "CCn1cc(C(=O)O)c(=O)c2cc(F)c(N3CCNCC3)nc21", "normalized growth": 0.978}
{"Molecule": "COC(=O)c1cc(=O)c(O)c2c(O)c(O)ccc2c1", "normalized growth": 1.01}
{"Molecule": "CN(C)CCN(Cc1ccccc1)c1ccccn1", "normalized growth": 1.01}

----------
assay: chemical genetic growth profiling, strain panel (AID 1159580);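 further: tested at 20 µM; growth read once vehicle control cultures reached saturation at 30 °C; 1 = growth at the plate median or of vehicle wells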; conditions: S. cerevisiae deletion strains, growth OD, locus YNL307C, strain MCK1
In all, about 5,500 compounds went through this assay and about 2,000 (36%) were called active. About 18% were inconclusive and are not listed. No stated cut-off is given here; in the data, active means normalized growth mostly below about 0.91 (no sharp cut-off); inconclusive means no clear call, values can overlap the other calls; inactive means mostly above about 0.92. The list shows a part of the results.
Classes used: active, inactive

{"Molecule": "CN1C2CCC1CC(OC(c1ccccc1)c1ccccc1)C2 (configuration not stated)", "Cat": "inactive"}
{"Molecule": "CN(C)CCN(Cc1ccccc1)c1ccccn1", "Cat": "inactive"}
{"Molecule": "CC[C@@]1(O)C[C@H](O[C@H]2C[C@H](N(C)C)[C@H](O)[C@H](C)O2)c2c(cc3c(c2O)C(=O)c2c(O)cccc2C3=O)[C@H]1C(=O)OC", "Cat": "active"}
{"Molecule": "CCC(C)C(=O)OC1CC2(C)C(c3ccoc3)OC(=O)CC23OC2(C)OC34C(OC(=O)C(C)C)C3(O)C(OC(=O)C5(C)OC5C)C5(C)CC3(O)C(C)(C5C(=O)OC)C14O2 (configuration not stated)", "Cat": "inactive"}
{"Molecule": "COc1ccc(-c2coc3cc(OC)ccc3c2=O)cc1", "Cat": "active"}
{"Molecule": "CC[C@@]1(O)C[C@H](O)c2c(cc3c(c2O)C(=O)c2c(O)ccc(O)c2C3=O)[C@H]1C(=O)OC", "Cat": "active"}
{"Molecule": "COc1ccc(OC)c(C(O)CNC(=O)CN)c1 (configuration not stated)", "Cat": "inactive"}
{"Molecule": "COc1ccccc1-c1coc2cc(O)ccc2c1=O", "Cat": "inactive"}
{"Molecule": "O=C1C(Cl)=C(Cl)C(=O)C(Cl)=C1Cl", "Cat": "active"}
{"Molecule": "CC(=O)S[C@@H]1CC2=CC(=O)CC[C@]2(C)[C@H]2CC[C@@]3(C)[C@@H](CC[C@@]34CCC(=O)O4)C12 (some centres not stated)", "Cat": "inactive"}
{"Molecule": "O=c1c(-c2ccc(O)cc2)coc2cc(O)ccc12", "Cat": "inactive"}
{"Molecule": "C[C@]12CCC(=O)C=C1C=CC1C2CC[C@@]2(C)C1CC[C@@]2(O)CCC(=O)O (some centres not stated)", "Cat": "inactive"}

The values you see were collected from PubChem BioAssay AID1159580.
